tested on: U2OS; test: Multiplex assay against U2OS; format: toxicity, cell-based; conditions: human, 12 h, 1 µM, compound concentration 1 uM, replicate 1
The entries below are paired with their reported Population Apoptotic (%).
Numeric only. Scale: %

Below, 6 compounds whose answers are already recorded.
* CC(C)NC(=O)N1CC[C@H](NC2=Nc3cc(F)ccc3N(CC(F)F)c3ccc(Cl)cc32)C1 | 50
* CC1=C(C(=O)Nc2cc3cn[nH]c3cc2F)C(c2ccc(C(F)(F)F)cc2)CC(=O)N1 (stereo not drawn) | 46
* O=C(c1cc2c(cc1F)OC(c1ccc(F)cc1)(c1ccc(Cl)cc1Cl)O2)N1CCOCC1 (stereo not drawn) | 57
* COC(=O)C1=C(C)NC(C)=C(C(=O)OCCCN2CCC(c3ccccc3)(c3ccccc3)CC2)[C@H]1c1cccc([N+](=O)[O-])c1 | 64
* CC(C)c1noc(N2CCC(COc3ccc(-c4ccc(S(C)(=O)=O)cc4)nc3)CC2)n1 | 58
* CC(C)OC(=O)N1CCC(Oc2ncnc3c2cnn3-c2ccc(S(C)(=O)=O)cc2F)CC1 | 57

// sample COc1cc2ncn(-c3cc(OCc4ccccc4C(F)(F)F)c(C(N)=O)s3)c2cc1OC [GW843682X] , its Population Apoptotic (%) was 54

Input COc1ccccc1CN[C@H]1C2CCN(CC2)[C@H]1C(c1ccccc1)c1ccccc1 . Output Population Apoptotic (%): 22

Please fill in: Population Apoptotic (%) reported for CNC(=O)Nc1ccc(-c2nc(N3CC4CCC(C3)O4)c3cnn(C4CCC5(CC4)OCCO5)c3n2)cc1 = 22

Cc1nc(N2CC[C@H](O)C2)ncc1-c1cc(C(F)(F)F)cc2[nH]ncc12 has a reported Population Apoptotic (%) of 25

For this compound ( C[C@]12CC[C@@H]3c4ccc(O)cc4CC[C@H]3[C@@H]1CC[C@@H]2O ), measured Population Apoptotic (%) is 11

GET /value?item= CC(C)Oc1ccccc1C(=O)Nc1ccccc1C(=O)Nc1cccc(S(=O)(=O)C(F)(F)F)c1 &field=Population Apoptotic (%) returns 47

The recorded Population Apoptotic (%) for Cl.O=C(O)c1cc(-c2ccc(C3CCNCC3)cc2)c2ccc(-c3ccc(C(F)(F)F)cc3)cc2c1 is 25

For this compound ( C=CC(=O)Nc1ccc2[nH]c(=O)n(C3CCN(Cc4ccc(-c5nc6cc[nH]c(=O)c6cc5-c5ccccc5)cc4)CC3)c2c1 ), measured Population Apoptotic (%) is 25

The recorded Population Apoptotic (%) for CN1CCN(Cc2ccc(Nc3ncc(Cl)c(Nc4ccccc4S(=O)(=O)N(C)C)n3)cc2)CC1 is 73

====

system: Fibroblast; assay: Multiplex assay against human fibroblast; assay type: toxicity, cell-based; conditions: 12 h, 1 µM, compound concentration 1 uM, replicate 2
We use 9% as the dividing line for Population Hoechst High Intensity Objects (%): on or above the line is T, below is F.

• CC(C)c1noc(N2CCC(COc3ccc(-c4ccc(S(C)(=O)=O)cc4)nc3)CC2)n1 = F

Check the entry CCc1nn(CCCN2CCN(c3cccc(Cl)c3)CC2)c(=O)n1CCOc1ccccc1.Cl [NEFAZODONE HYDROCHLORIDE] : does Population Hoechst High Intensity Objects (%) equal or exceed 9%?
F

For this molecule, is measured Population Hoechst High Intensity Objects (%) 9% or higher? O=C(c1cc2c(cc1F)OC(c1ccc(F)cc1)(c1ccc(Cl)cc1Cl)O2)N1CCOCC1 (centres undefined)
F

// inclusive: Population Hoechst High Intensity Objects (%) at least 9%? input: CCOC(=O)Nc1cc(-c2ccc(C)c(NS(C)(=O)=O)c2)nn2c(C)nnc12
T

====

This section presents compounds with their documented Growth Rate values.
test system: U2OS; test: Incucyte cell viability with U2OS; type: toxicity, cell-based; details: human, 12 h, 10 µM, compound concentration 10 uM, replicate number 1, timepoint 12 hours; further: filed as whole numbers so only -1 and 0 and 1 occur

The examples below pair each entry with its known result.
• Cc1cnc(-c2cc(Cl)ccc2F)cc1-n1c(=O)n(CC(N)=O)c2ccccc21 [Al11] = 1
• Cc1cc(NC(=O)c2cccc(S(F)(F)(F)(F)F)c2)cc(-n2ccn3nc(-c4cccnc4)cc23)c1 [BAY-309] = 0
• C[C@]1(O)C[C@@H](c2nc(-c3ccc4ccc(-c5ccccc5)nc4c3)c3c(N)nccn32)C1 [LINSITINIB] = 0
• CN1C[C@H](Nc2cnn(C)c(=O)c2Br)C[C@H](c2ccccc2)C1 = 1
• COc1cc(C(=O)NS(=O)(=O)c2ccccc2C)ccc1Cc1cn(C)c2ccc(NC(=O)OC3CCCC3)cc12 [ZAFIRLUKAST] = 1

Growth Rate recorded for this compound, CN(c1ccccc1CNc1nc(Nc2ccc3c(c2)CC(=O)N3)ncc1C(F)(F)F)S(C)(=O)=O , is 0

The compound listed as Cc1cc(C(C)(C)C)c(O)c(C)c1CC1=NCCN1.Cl [OXYMETAZOLINE HYDROCHLORIDE] has a reported Growth Rate of 0

Input CSc1cccnc1N1CCN(Cc2nc3ccccc3[nH]2)CC1 [A-769] . Output Growth Rate: 0

The reported value for CCNC(=O)c1cc2c(N3CCOC[C@@H]3C)ccnc2n1C in terms of Growth Rate is 0

Measured Growth Rate of O=S1(=O)c2cccc3cccc(c23)N1CCCN1CCN(c2ccc(F)cc2)CC1 [FANANSERIN] : 1

The reported Growth Rate of the compound CC#CC(=O)N1CCC[C@H]1c1nc(-c2ccc(C(=O)Nc3ccccn3)cc2)c2c(N)nccn12 [ACALABRUTINIB] was 0

Lab note: C[C@]1(C(=O)N(CCCC(=O)O)Cc2cccc(Cl)c2)CCN1C(=O)c1csc2ccccc12 [GLPG-0974] gave Growth Rate of 1

According to the records, this compound CN1CCc2c(c3ccccc3n2Cc2ccc(C(=O)NO)cc2)C1 [TUBASTATIN A] displays Growth Rate of 1

Sample O=C1CCc2cc(Nc3cc(OC4CCOCC4)c([N+](=O)[O-])cc3Cl)ccc2N1 ; Growth Rate observed: 0

Short answer for COc1cc2ncn(-c3cc(OCc4ccccc4C(F)(F)F)c(C(N)=O)s3)c2cc1OC [GW843682X] : Growth Rate was 1

====

test system: HEK-293T; assay: Multiplex assay against HEK293T; type: toxicity, cell-based; conditions: human, 48 h, 10 µM, compound concentration 10 uM, replicate 2
Assay Metric: Population Healthy Nuclei (%)
Output should be the measured figure followed by the unit it is expressed in.

A selection of reference data follows.
• COc1ccccc1CN[C@H]1C2CCN(CC2)[C@H]1C(c1ccccc1)c1ccccc1 = 71%
• C[C@]12CC[C@@H]3c4ccc(O)cc4CC[C@H]3[C@@H]1CC[C@@H]2O = 69%

Field Population Healthy Nuclei (%) (HEK-293T), entry Cc1ccccc1C(c1ccccc1C)N1C2CCC1CC(O)(c1ccccc1)C2 (stereo not drawn) : 72%

====

tested on: U2OS; assay: Multiplex assay against U2OS; format: toxicity, cell-based; details: human, 24 h, 1 µM, compound concentration 1 uM, replicate 2
Assay Metric: Population Mitochondria Different-Phenotype (%)
Kindly answer with a numeric value in %, unit omitted.

• O=c1[nH]c2ccccc2n1C1CCN(Cc2ccc(-c3[nH]c4cc5ncnc5cc4nc3-c3ccccc3)cc2)CC1 = 15
• O=C(c1cc2c(cc1F)OC(c1ccc(F)cc1)(c1ccc(Cl)cc1Cl)O2)N1CCOCC1 (stereo not drawn) = 15

Shift focus to the following entry.
Entry under test: Cc1nc(N2CC[C@H](O)C2)ncc1-c1cc(C(F)(F)F)cc2[nH]ncc12 . Its Population Mitochondria Different-Phenotype (%) was 24

====

tested on: Fibroblast; experiment: Multiplex assay against human fibroblast; type: toxicity, cell-based; conditions: 48 h, 10 µM, compound concentration 10 uM, replicate 2
Assay Metric: Population Tubulin-Different-Phenotype (%)
Give your result in % as a bare value.

• COc1cc(Nc2nccc(-c3cnn4nc(OC)ccc34)n2)cc(C(F)(F)F)c1 = 40
• Cc1c[nH]c2nccc(Oc3c(F)cc(Nc4cc(Cl)nc(N)n4)cc3F)c12 = 6
• COc1ccc(-c2ccc3ncc4c(c3c2)n(-c2ccc(N3CCNCC3)c(C(F)(F)F)c2)c(=O)n4C)cn1.O=C(O)/C=C\C(=O)O = 55
• CC(C)OC(=O)N1CCC(Oc2ncnc3c2cnn3-c2ccc(S(C)(=O)=O)cc2F)CC1 = 44
• CCc1ccc(OCc2ccccc2C(=O)Nc2ccc3nc(C)cc(N)c3c2)cc1.Cl = 50

Recorded Population Tubulin-Different-Phenotype (%) (molecule Cc1cccc(CN2CCN(C(c3ccccc3)c3ccc(Cl)cc3)CC2)c1.Cl.Cl (stereo unspecified) ): 88

The reported Population Tubulin-Different-Phenotype (%) of the molecule CC(C)c1noc(N2CCC(COc3ccc(-c4ccc(S(C)(=O)=O)cc4)nc3)CC2)n1 was 59

Value of measured Population Tubulin-Different-Phenotype (%) for the entry C#Cc1cccc(Nc2ncnc3cc(OCCOC)c(OCCOC)cc23)c1 : 95

Population Tubulin-Different-Phenotype (%) reading for CC(C)NC(=O)N1CC[C@H](NC2=Nc3cc(F)ccc3N(CC(F)F)c3ccc(Cl)cc32)C1 : 56

So for CC(C)(C)NC[C@H](O)COc1nsnc1N1CCOCC1 , the logged Population Tubulin-Different-Phenotype (%) turned out to be 29

COC(=O)C1=C(C)NC(C)=C(C(=O)OCCCN2CCC(c3ccccc3)(c3ccccc3)CC2)[C@H]1c1cccc([N+](=O)[O-])c1 has a reported Population Tubulin-Different-Phenotype (%) of 21
